Cited source: the RNAGym collection of RNA variant scans (doi:10.7554/elife.80360)

Reported self-cleavage is given for each of the following variants.
B1: Hairpin Ribozyme (parent)
chain: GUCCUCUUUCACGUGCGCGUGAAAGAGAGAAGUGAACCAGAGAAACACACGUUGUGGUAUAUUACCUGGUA

variants of: B1; test: self-cleavage, relative activity (ratio to wild type); higher = more cleavage; co-transcriptional
MEASURED PROPERTY: self-cleavage

> print(dat)
    variant.identifier  result
 1           U14C G68A   0.234
 2           C16A C50U   0.309
 3           C12G U55C   0.216
 4           A22U A36C   0.589
 5           G32A U70A   0.139
 6           A36G U53G   0.507
 7           U53A C66U   0.649
 8           A45U G68A   0.169
 9           U14G A35C   0.805
10           G13U A71G   0.936
11           A28C G40A   0.131
